Molecular target: GALR3 septuple (Homo sapiens, UniProt O60755, A190V/A191F/C272L/G192S/L100F/Y103F/Y107H)
Construct: expressed in transfected cells; host or cells: HEK293 cells stably expressing pGlosensor-22F cAMP plasmid
Test: cAMP assay (inhibition of forskolin-induced cAMP), GALR3 septuple mutant
Format: cell-based
Conditions: Glosensor-22F cAMP HEK293 cells, agonist 10 min then forskolin 10 μM, mean ± SE, SEM
Ends that are not written are not given here.
MEASURED ENDPOINT: EC50 (nM)
Enter your answer as a number in nM; do not include the unit.

State its EC50 for this substance: NWTPNAALYLFGPQ-NH2 [Qu-SPX]
794

###

Biological target: GALR3 single mutant P^267R (Homo sapiens, UniProt O60755, P267R)
Construct: expressed in transfected cells; host or cells: HEK293 cells stably expressing Gqi
Experiment: SRE-luc luciferase assay, GALR3 P267R
Assay type: cell-based
Settings: GALR3 P^267R; SRE-luc in HEK293 Gqi cells, ligand 6 h; mean ± S.E.; SEM
Ends that are not written are not given here.
MEASURED ENDPOINT: pEC50
Reminder that pEC50 means the negative base-10 logarithm of the concentration expressed in mol/L.

State its pEC50 for this substance: NWTPQAMLYLFGAQ-NH2 [F^11-SPX]
6.25

###

Entries and their EC50 values follow.
Molecular target: human GALR2 (Homo sapiens, UniProt O43603)
Construct: host or cells: HEK293 cells stably expressing Gqi
Sequence (O43603 whole entry): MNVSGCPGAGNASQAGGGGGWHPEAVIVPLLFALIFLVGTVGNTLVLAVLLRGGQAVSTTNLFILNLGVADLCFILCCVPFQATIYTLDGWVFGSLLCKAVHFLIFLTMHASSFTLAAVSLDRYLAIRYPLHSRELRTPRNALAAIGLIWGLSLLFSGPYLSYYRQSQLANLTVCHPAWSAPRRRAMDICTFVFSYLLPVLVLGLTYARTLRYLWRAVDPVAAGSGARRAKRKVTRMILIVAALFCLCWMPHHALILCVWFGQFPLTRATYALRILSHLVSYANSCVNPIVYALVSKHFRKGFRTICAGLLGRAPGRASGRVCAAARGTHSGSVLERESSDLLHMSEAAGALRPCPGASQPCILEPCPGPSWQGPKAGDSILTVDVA
Assay: SRE-luc luciferase assay, WT GALR2
Format: cell-based
Conditions: SRE-luc in HEK293 Gqi cells, ligand 6 h, mean ± SE, at least three independent experiments, SEM
Ends that are not written are not given here.
Enter your answer as a number in nM; do not include the unit.

GET EC50 where system = human GALR2 (Homo sapiens, UniProt O43603) and item = NWTPNAALYLFGPQ-NH2 [Qu-SPX]
87.1

GET EC50 where system = human GALR2 (Homo sapiens, UniProt O43603) and item = NWTPNAMLYLKGAQ-NH2 [N^5-SPX]
87.7

GET EC50 where system = human GALR2 (Homo sapiens, UniProt O43603) and item = NWTPQAMLYLKGPQ-NH2 [P^13-SPX]
33.1

GET EC50 where system = human GALR2 (Homo sapiens, UniProt O43603) and item = NWTPQAALYLKGAQ-NH2 [A^7-SPX]
40.7

GET EC50 where system = human GALR2 (Homo sapiens, UniProt O43603) and item = NWTPQAMLYLFGAQ-NH2 [F^11-SPX]
47.9

###

Target: GALR3 single mutant F^265P (Homo sapiens, UniProt O60755)
Construct: expressed in transfected cells; host or cells: HEK293 cells stably expressing Gqi
Sequence (O60755 1-368 F265L): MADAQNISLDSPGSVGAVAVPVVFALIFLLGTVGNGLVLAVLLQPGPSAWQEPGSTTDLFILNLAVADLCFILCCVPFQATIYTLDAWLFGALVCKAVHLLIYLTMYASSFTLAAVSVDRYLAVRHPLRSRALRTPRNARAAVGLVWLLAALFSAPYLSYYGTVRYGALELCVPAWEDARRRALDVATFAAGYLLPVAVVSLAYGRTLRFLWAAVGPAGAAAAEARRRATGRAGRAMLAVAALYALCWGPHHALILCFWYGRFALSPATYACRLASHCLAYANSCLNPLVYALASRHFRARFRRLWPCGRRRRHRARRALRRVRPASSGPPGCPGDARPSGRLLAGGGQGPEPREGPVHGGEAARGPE
Assay: SRE-luc luciferase assay, GALR3 F265P
Assay type: cell-based
Conditions: GALR3 F^265P; SRE-luc in HEK293 Gqi cells, ligand 6 h; mean ± S.E.; SEM
Ends that are not written are not given here.
MEASURED ENDPOINT: EC50 (nM)
Enter your answer as a number in nM; do not include the unit.

State its EC50 for this substance: NWTPQAMLYLFGAQ-NH2 [F^11-SPX]
457

###

Target: GALR3 septuple (Homo sapiens, UniProt O60755, A190V/A191F/C272L/G192S/L100F/Y103F/Y107H)
Construct: expressed in transfected cells; host or cells: HEK293 cells stably expressing pGlosensor-22F cAMP plasmid
Sequence (O60755 1-368 L100F/Y103F/Y107H/A190V/A191F/G192S/C272L): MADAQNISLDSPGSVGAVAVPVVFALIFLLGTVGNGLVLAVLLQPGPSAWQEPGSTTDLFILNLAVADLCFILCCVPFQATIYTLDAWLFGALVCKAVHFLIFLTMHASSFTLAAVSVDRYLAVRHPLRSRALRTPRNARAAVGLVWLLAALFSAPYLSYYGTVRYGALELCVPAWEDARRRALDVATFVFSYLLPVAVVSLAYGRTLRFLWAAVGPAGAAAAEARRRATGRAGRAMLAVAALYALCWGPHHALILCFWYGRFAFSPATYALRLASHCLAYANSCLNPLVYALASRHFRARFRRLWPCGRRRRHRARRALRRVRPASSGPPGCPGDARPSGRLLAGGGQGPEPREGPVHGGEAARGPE
Assay: SRE-luc luciferase assay, GALR3 septuple mutant
Format: cell-based
Conditions: SRE-luc in HEK293 Gqi cells, ligand 6 h, mean ± SE, SEM
Ends that are not written are not given here.
MEASURED ENDPOINT: EC50

State its EC50 for this substance: NWTPNAALYLFGPQ-NH2 [Qu-SPX]
1.1 µM

###

Biological target: GALR3 single mutant A^187C (Homo sapiens, UniProt O60755, A187C)
Construct: expressed in transfected cells; host or cells: HEK293 cells stably expressing Gqi
Test: SRE-luc luciferase assay, GALR3 A187C
Type: cell-based
Conditions: GALR3 A^187C; SRE-luc in HEK293 Gqi cells, ligand 6 h; mean ± S.E.; SEM
Ends that are not written are not given here.
MEASURED ENDPOINT: EC50 (nM)
Enter your answer as a number in nM; do not include the unit.

GET EC50 where system = GALR3 single mutant A^187C (Homo sapiens, UniProt O60755, A187C) and item = NWTPQAMLYLKGPQ-NH2 [P^13-SPX]
550

###

Target: GALR3 mutant L^184M,V^186I,A^190V (Homo sapiens, UniProt O60755, A190V/L184M/V186I)
Construct: expressed in transfected cells; host or cells: HEK293 cells stably expressing Gqi
Sequence (O60755 1-368 L184M/V186I/A190V): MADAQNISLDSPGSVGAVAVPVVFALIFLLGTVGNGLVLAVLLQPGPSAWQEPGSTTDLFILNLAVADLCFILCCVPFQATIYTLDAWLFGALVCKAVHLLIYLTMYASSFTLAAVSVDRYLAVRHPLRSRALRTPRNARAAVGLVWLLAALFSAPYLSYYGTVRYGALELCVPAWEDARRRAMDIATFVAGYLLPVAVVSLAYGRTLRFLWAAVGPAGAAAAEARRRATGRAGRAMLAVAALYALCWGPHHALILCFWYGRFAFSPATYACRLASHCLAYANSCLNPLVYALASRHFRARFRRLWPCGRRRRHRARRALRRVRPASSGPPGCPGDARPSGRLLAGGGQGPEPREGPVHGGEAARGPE
Experiment: SRE-luc luciferase assay, GALR3 L184M,V186I,A190V
Type: cell-based
Details: GALR3 L^184M,V^186I,A^190V; SRE-luc in HEK293 Gqi cells, ligand 6 h; mean ± S.E.; SEM
Ends that are not written are not given here.
MEASURED ENDPOINT: EC50 (µM)
Enter your answer as a number in µM; do not include the unit.

State its EC50 for this substance: NWTPQAMLYLKGPQ-NH2 [P^13-SPX]
0.324

###

Target: GALR3 single mutant A^190V (Homo sapiens, UniProt O60755, A190V)
Construct: expressed in transfected cells; host or cells: HEK293 cells stably expressing Gqi
Assay: SRE-luc luciferase assay, GALR3 A190V
Assay type: cell-based
Details: GALR3 A^190V; SRE-luc in HEK293 Gqi cells, ligand 6 h; mean ± S.E.; SEM
Ends that are not written are not given here.
MEASURED ENDPOINT: EC50 (nM)
Enter your answer as a number in nM; do not include the unit.

GET EC50 where system = GALR3 single mutant A^190V (Homo sapiens, UniProt O60755, A190V) and item = NWTPQAMLYLKGPQ-NH2 [P^13-SPX]
468
